Reference source for all entries: ChEMBL document CHEMBL2396581

- subject of test: ATP-dependent translocase ABCB1 (Homo sapiens, UniProt P08183)
- Sequence (P08183 whole entry): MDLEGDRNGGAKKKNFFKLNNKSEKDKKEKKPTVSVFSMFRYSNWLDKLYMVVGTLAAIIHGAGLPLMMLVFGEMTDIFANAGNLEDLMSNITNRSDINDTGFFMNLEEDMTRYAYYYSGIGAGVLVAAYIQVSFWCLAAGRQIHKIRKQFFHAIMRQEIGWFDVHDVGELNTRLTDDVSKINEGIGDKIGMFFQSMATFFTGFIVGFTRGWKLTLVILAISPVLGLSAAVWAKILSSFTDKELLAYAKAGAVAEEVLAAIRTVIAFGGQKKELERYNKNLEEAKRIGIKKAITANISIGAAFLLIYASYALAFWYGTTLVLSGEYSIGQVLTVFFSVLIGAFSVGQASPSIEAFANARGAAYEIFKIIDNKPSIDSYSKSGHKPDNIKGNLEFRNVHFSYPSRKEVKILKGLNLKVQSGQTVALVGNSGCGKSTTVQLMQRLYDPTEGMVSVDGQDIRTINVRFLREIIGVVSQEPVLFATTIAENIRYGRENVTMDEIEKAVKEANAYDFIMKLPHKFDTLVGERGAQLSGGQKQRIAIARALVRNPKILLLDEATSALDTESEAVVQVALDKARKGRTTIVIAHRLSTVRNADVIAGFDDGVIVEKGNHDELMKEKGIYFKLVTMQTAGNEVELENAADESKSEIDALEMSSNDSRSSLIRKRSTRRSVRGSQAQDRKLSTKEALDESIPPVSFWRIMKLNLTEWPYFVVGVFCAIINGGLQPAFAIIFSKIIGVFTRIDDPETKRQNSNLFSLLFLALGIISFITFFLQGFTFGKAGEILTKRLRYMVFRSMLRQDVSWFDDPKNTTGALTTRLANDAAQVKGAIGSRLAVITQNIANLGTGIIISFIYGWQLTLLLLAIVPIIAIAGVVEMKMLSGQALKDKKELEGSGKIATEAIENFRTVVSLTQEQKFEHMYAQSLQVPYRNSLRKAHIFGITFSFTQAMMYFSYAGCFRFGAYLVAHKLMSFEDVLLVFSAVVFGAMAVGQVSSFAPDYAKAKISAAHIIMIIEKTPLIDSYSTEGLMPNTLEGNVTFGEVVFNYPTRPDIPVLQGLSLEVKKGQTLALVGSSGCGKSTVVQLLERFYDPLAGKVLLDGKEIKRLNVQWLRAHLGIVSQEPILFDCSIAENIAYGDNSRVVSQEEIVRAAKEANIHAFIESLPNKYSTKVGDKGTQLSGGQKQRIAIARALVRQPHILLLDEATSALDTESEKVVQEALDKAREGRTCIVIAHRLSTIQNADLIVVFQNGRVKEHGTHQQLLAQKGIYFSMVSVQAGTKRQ
- protocol notes: Inhibition of p-gp in human KB/VCR cells assessed as potentiation of 1 uM docetaxel-induced cytotoxicity at 5 uM after 72 hrs by MTT assay
- Format: cell-based
property name: inhibition (INH)

{"columns": ["structure notation", "subject of test", "endpoint result"],
 "data": [
  ["CC1(C)[C@@H](O)CC[C@]2(C)[C@H]3C[C@@H](O)[C@@H]4[C@@H]([C@@](C)(O)CCCNCc5cccnc5)CC[C@@]4(C)[C@]3(C)CC[C@@H]12", "ATP-dependent translocase ABCB1 (Homo sapiens, UniProt P08183)", "Active"],
  ["CC1(C)[C@@H](O)CC[C@]2(C)[C@H]3C[C@@H](O)[C@@H]4[C@@H]([C@@](C)(O)CCCNCc5ccncc5)CC[C@@]4(C)[C@]3(C)CC[C@@H]12", "ATP-dependent translocase ABCB1 (Homo sapiens, UniProt P08183)", "Active"],
  ["CC1(C)[C@@H](O)CC[C@]2(C)[C@H]3C[C@@H](O)[C@@H]4[C@@H]([C@@](C)(O)CCCNCc5ccccc5)CC[C@@]4(C)[C@]3(C)CC[C@@H]12", "ATP-dependent translocase ABCB1 (Homo sapiens, UniProt P08183)", "Active"],
  ["CC1(C)[C@@H](O)CC[C@]2(C)[C@H]3C[C@@H](O)[C@@H]4[C@@H]([C@@](C)(O)CCCNC5CC5)CC[C@@]4(C)[C@]3(C)CC[C@@H]12", "ATP-dependent translocase ABCB1 (Homo sapiens, UniProt P08183)", "Not Active"],
  ["COc1ccc(NCCC[C@](C)(O)[C@H]2CC[C@]3(C)[C@@H]2[C@H](O)C[C@@H]2[C@@]4(C)CC[C@H](O)C(C)(C)[C@@H]4CC[C@]23C)cc1", "ATP-dependent translocase ABCB1 (Homo sapiens, UniProt P08183)", "Not Active"],
  ["CC1(C)[C@@H](O)CC[C@]2(C)[C@H]3C[C@@H](O)[C@@H]4[C@@H]([C@@](C)(O)CCCNCCc5ccccc5)CC[C@@]4(C)[C@]3(C)CC[C@@H]12", "ATP-dependent translocase ABCB1 (Homo sapiens, UniProt P08183)", "Active"],
  ["CC1(C)[C@@H](O)CC[C@]2(C)[C@H]3C[C@@H](O)[C@@H]4[C@@H]([C@@](C)(O)CCCNCCN5CCNCC5)CC[C@@]4(C)[C@]3(C)CC[C@@H]12", "ATP-dependent translocase ABCB1 (Homo sapiens, UniProt P08183)", "Not Active"]
]}

----------
compounds and their reported fold change (FC)
- subject of test: ATP-dependent translocase ABCB1 (Homo sapiens)
- protocol notes: Inhibition of p-gp in human KB/VCR cells assessed as potentiation of vincristine-induced cytotoxicity at 5 uM after 72 hrs by MTT assay relative to verapamil
- Assay type: cell-based

{"columns": ["structure notation", "fold change (FC)"],
 "data": [
  ["CC1(C)[C@@H](O)CC[C@]2(C)[C@H]3C[C@@H](O)[C@@H]4[C@@H]([C@@](C)(O)CCCNCCc5ccccc5)CC[C@@]4(C)[C@]3(C)CC[C@@H]12", 1.8],
  ["CC1(C)[C@@H](O)CC[C@]2(C)[C@H]3C[C@@H](O)[C@@H]4[C@@H]([C@@](C)(O)CCCNCc5ccccc5)CC[C@@]4(C)[C@]3(C)CC[C@@H]12", 1.3]
]}
